# MEASURED TARGET: T1, Grasp55 PDZII (80-160), yeast two-hybrid construct (murine, UniProt Q99JX3 80-160)
# T1 construct: also called isolated second PDZ domain
# PROTOCOL TEXT: yeast two-hybrid, growth on selective medium
RECORDED ENDPOINT: binding result

Example cases with answers are listed next.
response.value for ICCAYRRGCFISSKQDGESYKSPGKHDGVNYIRTSEEGDFRHKSS (other, End at 307 worked out from 'deletion of the last three amino-acids' of 263-310; not shown: Gal4 domain of the two-hybrid vector) [JAM-C ΔPDZbm, yeast two-hybrid construct lacking the last three amino-acids] (field: binding result) = no binding

# binder ADAM17 C-terminal sequence, yeast two-hybrid construct (other, not shown: Gal4 domain of the two-hybrid vector) CVDKKLDKQYESLSLFHHSNIEMLSSMDSASVRIIKPFPAPQTPGRLQALQPAAMMPPVSAAPKLDHQRMDTIQEDPSTDSHVDDDGFEKDPFPNSSTAAKSFEDLTDHPVTRSEKAASFKLQRQSRVDSKETEC ; its binding result = binds

Entry TCYAQRKGYFSKETSFQKGSPASKVTTMSENDFKHTKSFII (other, not shown: Gal4 domain of the two-hybrid vector) [JAM-B cytoplasmic C-terminal construct, yeast two-hybrid] , binding result reported as no binding

binding result measured on ICCAYRRGCFISSKQDGESYKSPGKHDGVNYIRTSEEGDFRHKSSFVI (other, also called JAM-C C-terminal region; not shown: Gal4 domain of the two-hybrid vector) [JAM-C cytoplasmic C-terminal construct, yeast two-hybrid] = no binding

Next:
// binding result value for AYSRGYFETTKKGTAPGKKVIYSQPSTRSEGEFKQTS (other, End at 296 worked out from 'deletion of the last three amino-acids' of 260-299; not shown: Gal4 domain of the two-hybrid vector) [JAM-A ΔPDZbm, yeast two-hybrid construct lacking the last three amino-acids] : no binding

// recorded binding result for TCYAQRKGYFSKETSFQKGSPASKVTTMSENDFKHTKS (other, End at 295 worked out from 'deletion of the last three amino-acids' of 258-298; not shown: Gal4 domain of the two-hybrid vector) [JAM-B ΔPDZbm, yeast two-hybrid construct lacking the last three amino-acids] : no binding
